Measured Activity, listed per entry for reference.
- Test system: Mus musculus
- protocolSummary: Neurotoxicity against Mus musculus albino (mouse) assessed as fall from horizontal screen at 3 mg/kg, ip after 30 min by horizontal screen test relative to control
- Type: toxicity, organism-based
- Set-up: dose 3 mg/kg, route intraperitoneal
- experimentalSetup: in vivo, 0.5 h

compound	Activity
COc1ccc(C2N(C)c3ccccc3C(=O)NN2c2ccccc2)cc1 (configuration not stated)	16.7%
CN1c2ccccc2C(=O)NN(c2ccccc2)C1c1ccccc1[N+](=O)[O-] (configuration not stated)	16.7%
CN1CN(C(=O)c2ccncc2)NC(=O)c2ccccc21	33.3%
CN1c2ccccc2C(=O)NN(c2ccccc2)C1c1ccc(O)cc1 (configuration not stated)	16.7%
COc1cc(C2N(C)c3ccccc3C(=O)NN2c2ccccc2)cc(OC)c1OC (configuration not stated)	0%
CN1c2ccccc2C(=O)NN(c2ccccc2)C1c1ccc(Cl)cc1 (configuration not stated)	33.3%
CN1CN(c2ccccc2)NC(=O)c2ccccc21	50%
CN1c2ccccc2C(=O)NN(c2ccccc2)C1c1ccc(Br)cc1 (configuration not stated)	16.7%
CN1c2ccccc2C(=O)NN(c2ccccc2)C1c1ccccc1 (configuration not stated)	0%
CN1CCN(C2=Nc3cc(Cl)ccc3Nc3ccccc32)CC1	50%
CN1c2ccccc2C(=O)NN(c2ccccc2)C1c1ccc([N+](=O)[O-])cc1 (configuration not stated)	0%
CN1C(=S)N(c2ccccc2)NC(=O)c2ccccc21	0%

----------
Each entry below lists one item and its recorded Activity value.
- Tested on: Mus musculus
- protocolSummary: Antipsychotic activity in Mus musculus albino (mouse) assessed as ptosis at 3 mg/kg, ip relative to control
- Format: functional
- experimentalSetup: route intraperitoneal

molecule	Activity (%)
CN1c2ccccc2C(=O)NN(c2ccccc2)C1c1ccccc1 (configuration not stated)	0
COc1ccc(C2N(C)c3ccccc3C(=O)NN2c2ccccc2)cc1 (configuration not stated)	75
CN1c2ccccc2C(=O)NN(c2ccccc2)C1c1ccc([N+](=O)[O-])cc1 (configuration not stated)	50
CN1c2ccccc2C(=O)NN(c2ccccc2)C1c1ccc(O)cc1 (configuration not stated)	75
CN1C(=S)N(c2ccccc2)NC(=O)c2ccccc21	100
CN1c2ccccc2C(=O)NN(c2ccccc2)C1c1ccccc1[N+](=O)[O-] (configuration not stated)	0
COc1cc(C2N(C)c3ccccc3C(=O)NN2c2ccccc2)cc(OC)c1OC (configuration not stated)	50
CN1c2ccccc2C(=O)NN(c2ccccc2)C1c1ccc(Cl)cc1 (configuration not stated)	50
CN1CN(c2ccccc2)NC(=O)c2ccccc21	100
CN1c2ccccc2C(=O)NN(c2ccccc2)C1c1ccc(Br)cc1 (configuration not stated)	0
CN1CCN(C2=Nc3cc(Cl)ccc3Nc3ccccc32)CC1	100
CN1CN(C(=O)c2ccncc2)NC(=O)c2ccccc21	100

----------
- Tested on: Mus musculus
- protocolSummary: Neurotoxicity against Mus musculus albino (mouse) assessed as inability to climb horizontal screen at 3 mg/kg, ip after 30 min by horizontal screen test relative to control
- Format: toxicity, organism-based
- Design: dose 3 mg/kg, route intraperitoneal
- experimentalSetup: in vivo, 0.5 h
Below is a list of entries, each paired with its recorded Activity value.

compound	Activity, %
CN1C(=S)N(c2ccccc2)NC(=O)c2ccccc21	0
COc1ccc(C2N(C)c3ccccc3C(=O)NN2c2ccccc2)cc1 (configuration not stated)	0
CN1c2ccccc2C(=O)NN(c2ccccc2)C1c1ccccc1 (configuration not stated)	0
CN1c2ccccc2C(=O)NN(c2ccccc2)C1c1ccc(O)cc1 (configuration not stated)	0
CN1c2ccccc2C(=O)NN(c2ccccc2)C1c1ccccc1[N+](=O)[O-] (configuration not stated)	16.7
CN1CCN(C2=Nc3cc(Cl)ccc3Nc3ccccc32)CC1	16.7
CN1c2ccccc2C(=O)NN(c2ccccc2)C1c1ccc([N+](=O)[O-])cc1 (configuration not stated)	0
CN1c2ccccc2C(=O)NN(c2ccccc2)C1c1ccc(Cl)cc1 (configuration not stated)	33.3
COc1cc(C2N(C)c3ccccc3C(=O)NN2c2ccccc2)cc(OC)c1OC (configuration not stated)	0
CN1c2ccccc2C(=O)NN(c2ccccc2)C1c1ccc(Br)cc1 (configuration not stated)	16.7
CN1CN(c2ccccc2)NC(=O)c2ccccc21	0
CN1CN(C(=O)c2ccncc2)NC(=O)c2ccccc21	16.7
